Provide the recorded TGI for the entries that follow.
# Tested on: SF-268 CNS
# Assay explanation: NCI tumour cell line growth inhibition, 48 h

Provide each entry's TGI from the list below.
1. COc1ccc(N(C(=O)Nc2ccc(Cl)c(Cl)c2)C2c3cccn3C(=O)N2c2ccc(Cl)c(Cl)c2)cc1 (centres undefined)
2. O=C(C(Cl)=C(N1CCOCC1)N1CCOCC1)C(Cl)Cl
3. COc1c(O)c2c(=O)cc(OC)c3c4c(OC)cc(=O)c5c(O)c(OC)c6c(c(c1C(C(C)O)C6C(C)O)c23)c54 (centres undefined)
4. O=C(/C=C/c1ccccc1)CC(=O)CCC(=O)Nc1ccc(Cl)cc1

1. > 100 µM
2. > 100 µM
3. 15 µM
4. > 100 µM
